system: Danio rerio Tg(wt1b:EGFP) embryo, pronephros; assay: glomerular width (mean of left and right), fold change vs DMSO control; higher = wider glomerulus; conditions: 25 µM; exposure: 24-48 hpf
Structures can show the parent of a compound that is named as a salt.
Please map values of glomerular width to classes as shown: low value: < 0.9; medium value: ≥ 0.9 and < 1; high value: ≥ 1

Asked: Could you tell me which band CCN(CC)CC#CCOC(=O)C(O)(c1ccccc1)C1CCCCC1 (stereo not given) [Oxybutynin chloride] belongs to?
Given back: high value

Asked: // same read-out, input: CN(C)CCCO[C@@H]1[C@H]2OC(C)(C)O[C@H]2O[C@@H]1[C@H](O)CO [Amiprilose hydrochloride]
Given back: high value

Asked: Another molecule: COc1ccccc1OCC(O)COC(N)=O (stereo not given) [Methocarbamol]
Given back: high value

Asked: Likewise for CC(=O)OCC(=O)[C@@]12OC(C)(C)O[C@@H]1C[C@H]1[C@@H]3C[C@H](F)C4=CC(=O)C=C[C@]4(C)[C@@]3(F)[C@@H](O)C[C@@]12C [Fluocinonide] ?
Given back: high value

Asked: Try the molecule CCCCCCNC(=O)n1cc(F)c(=O)[nH]c1=O [Carmofur]
Given back: low value

Asked: Same again, this time with CCN(CC)CCOC(=O)C(Cc1cccc2ccccc12)CC1CCCO1 (stereo not given) [Nafronyl oxalate]
Given back: medium value

Asked: Same lookup for C=C1c2c(Cl)ccc(O)c2C(=O)C2=C(O)[C@]3(O)C(=O)C(C(N)=O)=C(O)[C@@H](N(C)C)[C@@H]3[C@@H](O)[C@H]12.O=C(O)c1cc(S(=O)(=O)O)ccc1O [Meclocycline sulfosalicylate] , please.
Given back: high value

Asked: Also need Clc1ccc(C(Cn2ccnc2)OCc2csc3c(Cl)cccc23)c(Cl)c1 (stereo not given) [Sertaconazole nitrate] , thanks.
Given back: low value

Asked: Please do the same for COc1ccc2[nH]c([S+]([O-])Cc3ncc(C)c(OC)c3C)nc2n1 (stereo not given) [Tenatoprazole] as well.
Given back: medium value

Asked: Try this molecule next: COC(=O)[C@@H]1[C@H]2C[C@H]3c4[nH]c5ccccc5c4CCN3C[C@@H]2CC[C@@H]1O [Yohimbine hydrochloride]
Given back: high value

Asked: How about this molecule: CCN(CC)CCNC(=O)c1ccc(N)cc1 [Procainamide hydrochloride]
Given back: high value

====

system: Danio rerio Tg(wt1b:EGFP) embryo, pronephros; experiment: fraction of imaged embryos annotated as normal kidney; higher = less nephrotoxic; extreme values may be limits of the assay; settings: 25 µM; exposure: 24-48 hpf
Counter-ions that a name gives are not always drawn.
Give measured fraction of imaged embryos annotated as normal kidney for each item. Keep answers brief.
// response body must contain only the number

Asked: Param item = OCCOCCN1CCN(C2=Nc3ccccc3Sc3ccccc32)CC1 [Quetiapine hemifumarate] ; retrieve measured fraction of imaged embryos annotated as normal kidney.
Given back: 0.917

Asked: Next entry: C=CCSCC1Nc2cc(Cl)c(S(N)(=O)=O)cc2S(=O)(=O)N1 (centres undefined) [Althiazide]
Given back: 0.5

Asked: Same question, CCOc1ccccc1OC(c1ccccc1)C1CNCCO1 (centres undefined) [Reboxetine mesylate] this time
Given back: 0.909

Asked: Next molecule up: CNc1ncnc2c1ncn2[C@@H]1O[C@H](CO)[C@@H](O)[C@H]1O [N6-methyladenosine]
Given back: 1

Asked: Please do the same for NC(=O)N1c2ccccc2CC(=O)c2ccccc21 [Oxcarbazepine] as well.
Given back: 0.833

Asked: How about this molecule: NCc1ccc(S(N)(=O)=O)cc1 [Mafenide hydrochloride]
Given back: 0.833

Asked: Okay, and CC(=O)OCC(=O)[C@@]1(O)CC[C@H]2[C@@H]3CCC4=CC(=O)CC[C@]4(C)[C@H]3[C@@H](O)C[C@@]21C [Cortisol acetate] ?
Given back: 0.25

Asked: Note, next up: Cc1ccccc1OCC(O)CO (centres undefined) [Mephenesin]
Given back: 0.917

Asked: Entry CC(=O)NC[C@H]1CN(c2ccc(N3CCOCC3)c(F)c2)C(=O)O1 [Linezolid] please
Given back: 0.917

Asked: Can you check CCCc1cc(=O)[nH]c(=S)[nH]1 [Propylthiouracil] next?
Given back: 1

Asked: Moving on to the next molecule: CCN(CC)CCOCCOC(=O)C1(c2ccccc2)CCCC1 [Carbetapentane citrate]
Given back: 0.75

Asked: Subsequent entry: NS(=O)(=O)c1cc2c(cc1Cl)NC(C(Cl)Cl)NS2(=O)=O (centres undefined) [Trichlormethiazide]
Given back: 0.75

Asked: Cool, now CC(C)(C)NC(=O)[C@H]1CC[C@H]2[C@@H]3CC[C@H]4NC(=O)C=C[C@]4(C)[C@H]3CC[C@]12C [Finasteride]
Given back: 0.917

Asked: Now consider CNCCC(Oc1ccccc1OC)c1ccccc1 (centres undefined) [Nisoxetine hydrochloride] .
Given back: 0.833

Asked: Same read-out for CN1C(C)(C)CCCC1(C)C [Pempidine tartrate] ?
Given back: 0.833

Asked: Try the molecule Nc1nc(Cl)nc2c1ncn2[C@H]1C[C@H](O)[C@@H](CO)O1 [Cladribine]
Given back: 0.909

Asked: Next molecule: CN(C)CCOC(=O)COc1ccc(Cl)cc1 [Meclofenoxate hydrochloride]
Given back: 0.667

Asked: What do you have for CN(C)CCOC(c1ccccc1)c1ccccc1 [Diphenhydramine hydrochloride] ?
Given back: 0.75

Asked: What do we get for O=C1CCC(N2C(=O)c3ccccc3C2=O)C(=O)N1 (centres undefined) [Thalidomide] ?
Given back: 0.917

====

Kindly supply the reported pronephric angle neck segment values for the records listed here.
test system: Danio rerio Tg(wt1b:EGFP) embryo, pronephros; assay: pronephric angle neck segment to proximal convoluted tubule (mean of left and right), fold change vs DMSO control; higher = larger pronephric angle; details: 25 µM; exposure: 24-48 hpf
Structures can show the parent of a compound that is named as a salt.

Asked: If you can, please state the reported pronephric angle neck segment value of CN(C)C(=N)NC(=N)N [Metformin hydrochloride] .
Given back: 1.08

Asked: Do the same for O=C(NCCNCC(O)COc1ccc(O)cc1)N1CCOCC1 (configuration not stated) [Xamoterol hemifumarate] please
Given back: 0.98

Asked: What do you get for O=C(Oc1cccc2cccnc12)c1ccccc1 [Benzoxiquine] ?
Given back: 1.1

Asked: Next compound: O=C1CN2Cc3c(ccc(Cl)c3Cl)N=C2N1 [Anagrelide]
Given back: 0.988

Asked: Entry CC(COc1ccccc1)N(CCCl)Cc1ccccc1 (configuration not stated) [Phenoxybenzamine hydrochloride] please
Given back: 1.15

Asked: Next entry: CN1CCN(c2c(F)cc3c(=O)c(C(=O)O)cn(CCF)c3c2F)CC1 [Fleroxacin]
Given back: 1.05

Asked: Follow-up entry: CCCc1cc(C(N)=S)ccn1 [Prothionamide]
Given back: 1.01

Asked: Repeat for the following compound: COC(=O)[C@H]1[C@H]2C[C@@H]3c4[nH]c5cc(OC)ccc5c4CCN3C[C@H]2C[C@@H](OC(=O)c2cc(OC)c(OC)c(OC)c2)[C@@H]1OC [Reserpine]
Given back: 1.02

Asked: Then this compound: Cc1nc(=O)c2cc(CN(C)c3ccc(C(=O)N[C@@H](CCC(=O)O)C(=O)O)s3)ccc2[nH]1 [Raltitrexed]
Given back: 0.98

Asked: What do you have for OCCOCCN1CCN(C2=Nc3ccccc3Sc3ccccc32)CC1 [Quetiapine hemifumarate] ?
Given back: 0.986

Asked: Let us now turn to COc1cc2nc(N3CCN(C(=O)C4COc5ccccc5O4)CC3)nc(N)c2cc1OC (configuration not stated) [Doxazosin mesylate]
Given back: 1.01

Asked: Subsequent entry: Cc1cc2cc3c(C)cc(=O)oc3c(C)c2o1 [Trioxsalen]
Given back: 1.03

Asked: Record: NS(=O)(=O)c1cc(C(=O)O)cc(N2CCCC2)c1Oc1ccccc1 [Piretanide]
Given back: 1.03

Asked: Further, for CC[C@H](C)C(=O)O[C@H]1C[C@H](O)C=C2C=C[C@H](C)[C@H](CC[C@@H](O)C[C@@H](O)CC(=O)O)[C@H]21 [Pravastatin] ?
Given back: 1.03

Asked: Try CCC[C@@H]1C[C@@H](C(=O)N[C@@H]([C@H]2O[C@H](SC)[C@H](O)[C@@H](O)[C@H]2O)[C@@H](C)O)N(C)C1 [Lincomycin hydrochloride] next.
Given back: 0.955

Asked: Entry C[C@H]1C[C@@H]2[C@H]([C@@H](O)C[C@@]3(C)[C@H]2CC[C@]3(O)C(=O)CO)[C@@]2(C)C=CC(=O)C=C12 [Methylprednisolone, 6-alpha] please
Given back: 1.06

Asked: Likewise for CCCCNC(=O)NS(=O)(=O)c1ccc(C)cc1 [Tolbutamide] ?
Given back: 1.04

====

Hi there, I'd appreciate the recorded fraction of imaged embryos annotated as normal kidney for every entry that follows.
system: Danio rerio Tg(wt1b:EGFP) embryo, pronephros; experiment: fraction of imaged embryos annotated as normal kidney; higher = less nephrotoxic; extreme values may be limits of the assay; conditions: 25 µM; exposure: 24-48 hpf
Counter-ions that a name gives are not always drawn.
No unit in the answer, only the number.

Asked: For Danio rerio Tg(wt1b:EGFP) embryo, pronephros, provide fraction of imaged embryos annotated as normal kidney of `Oc1c(I)cc(Cl)c2cccnc12` please.
Given back: 0

Asked: Let us now turn to CCN(CC)CCNC(=O)c1ccc(N)cc1 [Procainamide hydrochloride]
Given back: 0.455

Asked: // repeat for O=C(O)/C=C/c1ccc(Cn2ccnc2)cc1 [Ozagrel hydrochloride] and report
Given back: 0.833

Asked: // repeat for COc1ccccc1N1CCN(CCCNc2cc(=O)n(C)c(=O)n2C)CC1 [Urapidil hydrochloride] and report
Given back: 0.917

Asked: Now the same for `COc1ccc2c(c1)c(CC(=O)OCC(=O)O)c(C)n2C(=O)c1ccc(Cl)cc1`
Given back: 0.917

Asked: Note, next up: `CN(C)CCc1c[nH]c2ccc(C[C@H]3COC(=O)N3)cc12`
Given back: 0.833

Asked: Now the compound Clc1ccc(C(Cn2ccnc2)OCc2c(Cl)cccc2Cl)c(Cl)c1 (centres undefined)
Given back: 0.167

Asked: Next compound: CCOC(=O)C(C)(C)Oc1ccc(Cl)cc1 [Clofibrate]
Given back: 0

Asked: Lookup CCOC(=O)/C=C(C)/C=C/C=C(C)/C=C/c1c(C)cc(OC)c(C)c1C [Etretinate]
Given back: 1
